Assign melting point to each entry below.

Noted for Cc1nc2ccc(CCC(=O)NS(=O)(=O)c3ccccc3)cc2n1Cc1ccccc1Cl : its melting point reads 229.8 to 233 °C

Kindly note the recorded melting point for Nc1nc2ccc(C(=O)NS(=O)(=O)c3ccccc3)cc2n1Cc1ccc(-c2ccccc2)cc1 , which is 352.5 to 355 °C

melting point measured on Cc1nc2ccc(C=CC(=O)NS(=O)(=O)c3ccccc3)cc2n1Cc1ccccc1Cl = 243.1 to 244.3 °C

Looking up Cc1nc2ccc(C(=O)NS(=O)(=O)c3ccc(C(F)(F)F)cc3)cc2n1Cc1ccccc1Cl , I found its melting point recorded as 288 to 292 °C

According to the records, this compound Cc1nc2ccc(C(=O)NS(=O)(=O)c3ccccc3)cc2n1Cc1ccccc1Cl displays melting point of 273.5 to 274.3 °C

melting point measured on CCCCS(=O)(=O)NC(=O)c1ccc2nc(C)n(Cc3ccc(C(=O)c4ccccc4)cc3)c2c1 = 111 to 112.4 °C

// recorded melting point for O=C(O)c1ccc2nc(C3CC3)n(Cc3ccccc3F)c2c1 : 224 to 229 °C

The reported value for O=C(Nc1ccccn1)c1ccc2nc(C3CC3)n(Cc3ccccc3Cl)c2c1 in terms of melting point is 206 to 209 °C
